- subjectOfTest: T1, PKC-βII (purified isoform) (Homo sapiens (Human), UniProt P05771 2-621)
- T1 construct: also called PKC-beta II
- testDetails: competitive ELISA on purified PKC-βII vs anti-PKC-βII Ab; PRE 100 µM
quantityName: binding capacity (%)

> print(dat)
                                     binder          quantityname  recordednumber
1  Ac-ISIGILNQADK-NH2 (Synthetic peptide; also called peptide PRE 10) [PRE 10]  binding capacity (%)               0
2  Ac-KDANQLIGISI-NH2 (Synthetic peptide; also called peptide PRE 6) [PRE 6]  binding capacity (%)               0
3  RRKKGGKDFVVKR (Synthetic peptide, solid phase synthesis; termini given free; also called peptide PRE 1) [PRE 1]  binding capacity (%)               0

A. Ac-KDAQNLIGISI-NH2 (Synthetic peptide; also called peptide PRE 4) [PRE 4]
B. Ac-RDAQNLI-NH2 (Synthetic peptide; also called peptide PRE 13; Ac-RDAQNLI-NH2) [PRE 13]
Ask | Could you tell me which of A and B has the lower binding capacity (%) reading? Your answer should be the label attached to the chosen record.
Reply | B

Values from patent US20100041597A1
